Please respond with reported pEC50 for every item in the list.
targetEntity: procaspase-3 (Homo sapiens, UniProt P42574)
Construct: His6 (C); made in house; host or cells: E. coli BL21(DE3)RP, pET-23b
Sequence (P42574 whole entry): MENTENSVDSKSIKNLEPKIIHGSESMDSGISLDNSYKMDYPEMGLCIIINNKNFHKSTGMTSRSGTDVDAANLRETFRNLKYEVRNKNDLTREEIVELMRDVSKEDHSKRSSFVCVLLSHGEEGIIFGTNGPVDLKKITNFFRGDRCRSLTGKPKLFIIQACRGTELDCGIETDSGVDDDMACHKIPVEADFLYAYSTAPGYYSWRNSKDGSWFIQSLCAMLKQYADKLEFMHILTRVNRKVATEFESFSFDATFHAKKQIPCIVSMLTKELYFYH
methodSummary: Executioner procaspase-3 activation assay (Ac-DEVD-AFC fluorogenic substrate)
Format: biochemical
experimentalSetup: incubation with compound for 5 h at 37° C.; 100 nM procaspase; read-out: Procaspase Activation 3
pEC50: −log10 of the molar value.

According to the records, this molecule O=C(Nc1cccc(-c2cn3ccccc3n2)c1)c1cc2cccc(O)c2oc1=O [1541A] displays pEC50 of 5.00 to 6.30

According to the records, this molecule `COc1cccc2cc(C(=O)Nc3cccc(-c4c(C)noc4C)c3)c(=O)oc12` displays pEC50 of < 4.00

According to the records, this molecule `COc1ccc(-c2cccc(NC(=O)c3cc4cccc(OC(F)(F)F)c4oc3=O)c2)cc1` displays pEC50 of < 4.00

According to the records, this molecule `O=C(Nc1cccc(-c2cn3ccccc3n2)c1)c1cc2cc(I)ccc2oc1=O` displays pEC50 of < 4.00
